- assayRemarks: MTT cytotoxicity evaluation
- assayConditions: human, Cytotoxicity CC50 TZM-bl Cell Line, MTT assay
Please use rule met for CC50 under 30 µM and rule not met for everything else, ties included.

Observe how each entry below is paired with its result.
| compound | groupLabel |
| --- | --- |
| Fc1ccc(NCc2cn(-c3ccnc4cc(Cl)ccc34)nn2)cc1 [Compound 11d] | rule not met |
| O=[N+]([O-])c1cccc(NCc2cn(-c3ccnc4cc(Cl)ccc34)nn2)c1 [Compound 11i] | rule met |
| Fc1cccc(NCc2cn(-c3ccnc4cc(Cl)ccc34)nn2)c1 [Compound 11h] | rule met |

For Clc1ccc2c(-n3cc(CNc4ccccc4)nn3)ccnc2c1 [Compound 11a] , is the recorded CC50 below the cut-off of 30 µM?
rule not met

For Clc1ccc2c(-n3cc(CNc4ccc(I)cc4)nn3)ccnc2c1 [Compound 11c] , is the recorded CC50 below the cut-off of 30 µM?
rule not met

For COc1ccc(NCc2cn(-c3ccnc4cc(Cl)ccc34)nn2)cc1 [Compound 11j] , is the recorded CC50 below the cut-off of 30 µM?
rule met

For Cc1cn([C@H]2C[C@H](N=[N+]=[N-])[C@@H](CO)O2)c(=O)[nH]c1=O [AZT, azidothymidine, reference compound] , is the recorded CC50 below the cut-off of 30 µM?
rule not met

For Clc1ccc2c(-n3cc(CNc4ccc(Br)cc4)nn3)ccnc2c1 [Compound 11b] , is the recorded CC50 below the cut-off of 30 µM?
rule met

For Clc1cccc(NCc2cn(-c3ccnc4cc(Cl)ccc34)nn2)c1 [Compound 11e] , is the recorded CC50 below the cut-off of 30 µM?
rule not met
